Tested target: T1, human CD19 on CHO-K1-human CD19 cells (human, UniProt P15391 20-556)
T1 construct: whole, on cells; also called CHO-K1-human CD19-2C8
T1 sequence (looked up): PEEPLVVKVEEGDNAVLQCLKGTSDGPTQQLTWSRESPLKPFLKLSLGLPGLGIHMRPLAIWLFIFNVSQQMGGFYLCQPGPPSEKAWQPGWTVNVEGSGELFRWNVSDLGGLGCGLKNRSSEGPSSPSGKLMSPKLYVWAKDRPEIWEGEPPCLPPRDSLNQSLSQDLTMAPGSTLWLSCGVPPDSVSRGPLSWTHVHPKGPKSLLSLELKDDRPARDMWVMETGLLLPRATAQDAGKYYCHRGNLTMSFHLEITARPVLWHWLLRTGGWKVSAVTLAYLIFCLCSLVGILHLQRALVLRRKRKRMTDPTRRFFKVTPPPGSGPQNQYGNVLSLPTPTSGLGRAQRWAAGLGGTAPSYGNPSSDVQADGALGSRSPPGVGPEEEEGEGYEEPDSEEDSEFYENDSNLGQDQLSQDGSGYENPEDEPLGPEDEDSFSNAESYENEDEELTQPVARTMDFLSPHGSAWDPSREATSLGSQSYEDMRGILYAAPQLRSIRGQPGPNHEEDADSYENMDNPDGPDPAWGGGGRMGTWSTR
Protocol: FACS on CHO-K1-human CD19 cells
Recorded metric: Maximum mean fluorescence intensity
Could you keep your reply to the number by itself?

F6.2.9 (antibody, human IgG1, V domains shown, human-murine chimeric antibody, human IgG1) VH: QVQLQQSGAELVKPGASVKISCKASGYAFSSYWMNWVKQRPGKGLEWIGQIYPGDGDTNYNGKFKGKATLTADKSSSTGYMQLSSLTSEDSAVYFCARSRITSVVDWYFDVWGTGTTVTVSS VL: QIVLSQSPAILSASPGEKVTMTCRASSSVSYMHWYQQKPGSSPKPWIYATSNLASGVPARFSGSGSGTSYSLTISRVEAEDAATYYCQQWSSNPPTFGAGTKLELK :: 10300

Exercise: Give the measured Maximum mean fluorescence intensity of F3.5.1 (antibody, human IgG1, V domains shown, human-murine chimeric antibody, human IgG1) VH: QAQLQQSGPELVKPGASVKISCKASGYAFSGSWMNWVQQRPGKGLEWIGRIYPGDGDTYYNGKFKDKAILTADKSSSTAYMQLSSLTSEDSAVYFCAQLRYRYVMDYWGQGTSVTVSS VL: DIVLTQSPASLAVSLGQRATISCRASESVSIHGSHLMHWYQQKPGQPPRLLIYAASNLESGVPARFSGSGSETDFTLNIHPVEEEDAATYFCQQGIKDPYTFGGGTKLEIK .
Key: 49900
